tested on: MS2 coat protein; assay: apparent KD of MS2 coat protein; designed switch direction (-1 OFF switch, 1 ON switch): 1; higher = weaker reporter binding; conditions: input ligand: none
reported_property: apparent KD of MS2 coat protein (nM)
Reply with just the number (in nM).

Field: example entries. Status: answers known.
{"columns": ["sequence_content", "measured_number"],
 "data": [
  ["GGUCGGACUACAUGAGGAUCACCCAUGUGUGCGGAAACGCCAUAGGAUAUCUGUCCGAAAAGGUCAGAGAAGGGUGAACCGACC [Fiskers NG3ss - 67] (Eterna round: R96, puzzle: Same State NG 3)", 73.9],
  ["AUUAUACAUGAGGAUCACCCAUGUCAACAAAGUCGAGGAUAUGGGCAAAUAAAAUAAGAACCAGAAGGCGAAUAAU [salish99_ss1_r3_069] (Eterna round: R96, puzzle: Same State 1)", 293],
  ["GCAACAGGGUGAGGAUAUCUAUGGACCGACCAUAGAGAAGGCACUGGAAACACAUGAGGAUCACCCAUGUGCCAAAGAACAGUA [Eternabot solution 9] (Eterna round: R96, puzzle: Same State NG 1)", 28.4],
  ["AAACGCAGCAUAUCGCUGCGACAUGAGGAUCACCCAUGUACACAGGAUAUCGCAGCAUACCGCCGCGAGAAGGGUGAUCAAGAC [Anonlete] (Eterna round: R96, puzzle: Same State NG 3)", 33.9]
]}

Now let's try a different one.
In plain terms, AAAAUAAAUACAGGAUAUAGCCGCCUAAAGCGGCUAGAAGGGUAGAUCGAAAUACAUGAGGAUCACCCAUGUGCACGUAAGUGC [Eresesgeti] (Eterna round: R96, puzzle: Same State NG 1) has a documented apparent KD of MS2 coat protein of 1350

====

test system: K4 kissing-loop RNA reporter; test: apparent KD of K4 kissing-loop reporter; higher = weaker reporter binding; conditions: Eterna round: R107; input ligand: theophylline 20 uM;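 further: bound reporter read as fluorescence of individual clusters on recovered sequencing chips by microscopy, with normalized cluster intensities fitted with a binding model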
reported_property: apparent KD of K4 kissing-loop reporter
Write the quantity with the unit trailing the number.

{"columns": ["sequence_content", "assay_system", "apparent KD of K4 kissing-loop reporter"],
 "data": [
  ["AUGUCUGAUAGCAGUGAUGUUGCUUCAGAUACCAGACGAGAUCAUGUCCCUUGGCAGCUGACACGGCACGUGCUAGGUUAGAUGA [whbob_Ex_Theo_A_th71]", "K4 kissing-loop RNA reporter", "102 nM"],
  ["UAAGAAUAAGUAGCAGUGAUGUUGCUACUGCGAGGACCGGUACGGCCGCCACUCGAGUCCUCGAAGCGUCACUGAACGAGGAAUA [whbob_SS_Tryp_A_m13]", "K4 kissing-loop RNA reporter", "433 nM"],
  ["UGAUUGCCAGUGAUGUUGGCAGGGUCUGAAGGAGCGCGUGAAAACGCAGGUAGGUCGCAGUAUGGUGCCAAUUGAUCGAAAGAUC [KL-XArg-A3]", "K4 kissing-loop RNA reporter", "210 nM"],
  ["CCAUUCUUUUACGAUACCAGUUUAAUAUAUUUAAUCAAAACCCUCGCCGAGUGAUGUUCGGACCCUUGGCAGCGUUUGCGAGAGG [bjnbstkmullin]", "K4 kissing-loop RNA reporter", "533 nM"]
]}

// sample AGAGAUAUAUGAGGAUAUGAGAUAGUUAAUGAGUGAGUUAUAGUGUUGUUUGGUUAGUGAUGUUAUUUAGAAGGCGUGAGUGAUG [immumullin] , its apparent KD of K4 kissing-loop reporter was 119 nM

The sequence AGGUACAAAAGUACCGCUAGAUCCACGGAAGGAGCGCCGGAAACGGCAGGUAGGUCGCCGGGCAGUGAUGUUGCCGGAUCUAGCA [Omei KL Arginine A SS A v4] showed apparent KD of K4 kissing-loop reporter equal to 240 nM

For record GAUCCAUGACAAGGAUAUUCGCCAACGGUGCCGGAGUGAUGUUCUGCACAACAGACUACAAGUAAGGAAGAAGGUGUCAGUUACC [theeternabot_sameState_KL_FMN_B_29] the listed apparent KD of K4 kissing-loop reporter is 609 nM

The sequence listed as UGUAAGCGCGUAGAUACCAGCAGACGAGUGAUGUUCGAGAGAUUAAGGAAAAGAAAGUGAUGCCCUUGGCAGCUAAUCAUAAGCG [whbob_Ex_Theo_B_sa95] has a reported apparent KD of K4 kissing-loop reporter of 323 nM

What the record says about CCUAUCUCAUACGAUACCAGUCAAAAUAUAAUUAACCAGUGAUGUUGGAUUUACCAAGGAGACCCUUGGCAGCGUAUGGGAUAGG [Ex Theophylline B K4 18] : apparent KD of K4 kissing-loop reporter is 517 nM

// recorded apparent KD of K4 kissing-loop reporter for AGAGAGGUGUUUUUUUGAAGUGAGUAAUGGCGAGGACCGGUACGGCCGCCACUCGGGUGAUGUUAGUGAUGUUGAUGUAGUGAUG [yrymullin] : 114 nM

Lab note: measured apparent KD of K4 kissing-loop reporter of "GCGUGCCAUGCAGGAUAUAGUUGUUCGAGUGAUGUUCGAGCCUUGCUAAGUUCGGAGCAUCAGCUUCUAGAAGGGCAUGGCACGC" was 241 nM

GGAUAGGAUAGAGGAUAUGGUUUAUGCAAGAAUAACUUAUCGUGUAAAUCCAUAGGGAGUGAUGUUCCAGAAGGCUGUCCUAUCG [MatMod 12 - Jieux - Exclusion - FMN B] has a reported apparent KD of K4 kissing-loop reporter of 246 nM

In plain terms, UUAGCCUAGCCAUAGUGAUGUUGUGGAAUACGAGGACCGGUACGGCCGCCACUCGCUCGACGGUGAUGACAUCAACGACCUUUAU [theeternabot_sameState_KL_Trp_A_38] has a documented apparent KD of K4 kissing-loop reporter of 314 nM

Recorded apparent KD of K4 kissing-loop reporter (sequence AUUUUCAUUUUAUUAUAUAACUUUUCAGAAGGAGCGUGGAAGUUCACAGGUAGGUCGCUGAAUAUUGGACUAGUGAUGUUAGUUA [JR_Nu_SSArginiA_Sub022] ): 259 nM

Sure, the documented apparent KD of K4 kissing-loop reporter for GCAGUGAUGUUGCUGAUGUACAGUGGGAUACGAGGACCGGUACGGCCGCCACUCGUACAGAAUUUGUUAAUACAUCGAUAAGUGA [XV] is 436 nM

Entry "GGUAGGGCAGCUGCGGAAACGCAGCAUAUCGAGGAUAUCGGGAAACCGAGAAGGCGAGUAGUGAUGUUACUGGUUUAGCCCUACC" — recorded apparent KD of K4 kissing-loop reporter = 196 nM

Per the record, AAAAUAAACCAGUGAUGUUGGUGUGUAGAUACCAGCGACGAAAGUCGCCCUUGGCAGCUGUGGACGUACAAAAUAAGUACGUCCU [MatMod 23 - Jieux - Same State - Theophylline A] has apparent KD of K4 kissing-loop reporter of 325 nM

// apparent KD of K4 kissing-loop reporter value for AUCUUGUUUGGAGGAUAUUCUUUAUUCGACAUAACCUUCUAUAAGGUGCAGUGAUGUUGCAAUAUAGGAGAAGGUCGAGUGAGAU [Exclusion FMN B GF 17] : 166 nM

Lab note: UGACUGGACUGAAGGAGCGCUAAAACUCCUAGUGAUGUUGGGAAAUAGAGACAAAGUCUCAAGCAGGUAGGUCGCAGUCUAGUCU [ArgBS 23 #SwitchBubble #StaticStem] gave apparent KD of K4 kissing-loop reporter of 197 nM

Entry AGGAGCGUGGGAUGAAAAUCGCACGCUCCUCGAGGACCGGUACGGCCGCCACUCGCUCGCGCCGAGUGAUGUUCGGCCGGCGAAC [#2 Same State - Tryptophan A Attempt #12 (HarryS)] ; apparent KD of K4 kissing-loop reporter = 217 nM

Entry under test: UAAUUUAUUUCUUUUAUAUAAUAAUCAGAUACCAGUGAUUAAUGUCACCCUUGGCAGCUGUAUAGAGUGAUGUUCUAAUGCUUAA [JR_SSTheophyA_Sub022] . Its apparent KD of K4 kissing-loop reporter was 233 nM

For UUUUAUAACCGAAGGAGCGCGUGGGCGCAGUGAUGUUGCGCCCGACAUCACUUCAACUUAACGCAGGUAGGUCGCGGUUUUAAUA [Arginine B (Excl) V2] the sequence record lists apparent KD of K4 kissing-loop reporter as 158 nM

Briefly, apparent KD of K4 kissing-loop reporter measured for GACUCAUGUAGAAGGAGCGUCAGAAGUUAUAGACAUGAGUGAUGUUCAUGUUAGCUGAUUUGACAGGUAGGUCGCUACAGCAGGA [KL-SSArg B16 #analogue] : 114 nM
